Hello, the source for this data is BindingDB's records for doi:10.1016/j.carres.2010.10.023, in case you need it.

System Name: Tyrosine-protein phosphatase non-receptor type 1 (Homo sapiens, UniProt P18031)
Sequence (P18031 whole entry): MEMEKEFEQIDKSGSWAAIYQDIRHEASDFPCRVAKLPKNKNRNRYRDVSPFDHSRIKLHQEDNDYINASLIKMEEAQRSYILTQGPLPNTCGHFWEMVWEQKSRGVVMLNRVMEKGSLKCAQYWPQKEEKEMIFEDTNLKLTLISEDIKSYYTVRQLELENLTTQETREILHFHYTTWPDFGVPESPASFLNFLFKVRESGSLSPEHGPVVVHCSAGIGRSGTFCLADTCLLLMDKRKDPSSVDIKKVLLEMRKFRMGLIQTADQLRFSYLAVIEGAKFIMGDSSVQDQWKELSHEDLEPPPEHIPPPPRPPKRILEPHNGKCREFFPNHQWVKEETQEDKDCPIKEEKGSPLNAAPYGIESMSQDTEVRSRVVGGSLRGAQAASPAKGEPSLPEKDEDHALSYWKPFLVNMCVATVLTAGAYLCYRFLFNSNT
Test Method Notes: Inhibitor Assay
Assay Setup: 30 °C
Measured Quantity: IC50 (µM)
The answer is to be given in µM; state only the numeric part.

Observe how each entry below is paired with its result.
COC(=O)C(=O)c1ccc(-n2cc(CO[C@H]3O[C@H](COCc4ccccc4)[C@@H](OCc4ccccc4)[C@H](OCc4ccccc4)[C@H]3OCc3ccccc3)nn2)cc1	12.3
O=C(O)c1ccc(-n2cc(CO[C@H]3O[C@H](COCc4ccccc4)[C@@H](OCc4ccccc4)[C@H](OCc4ccccc4)[C@H]3OCc3ccccc3)nn2)cc1	11.1
COC(=O)C(=O)c1ccc(-n2cc(COC[C@H]3O[C@H](OC)[C@H](OCc4ccccc4)[C@@H](OCc4ccccc4)[C@@H]3OCc3ccccc3)nn2)cc1	12.7
O=C(O)C(=O)c1ccc(-n2cc(CO[C@H]3O[C@H](COCc4ccccc4)[C@@H](OCc4ccccc4)[C@H](OCc4ccccc4)[C@H]3OCc3ccccc3)nn2)cc1	5.6

Query compound follows.
Using Tyrosine-protein phosphatase non-receptor type 1 (Homo sapiens, UniProt P18031) as the test system, report measured IC50 of [N-]=[N+]=Nc1ccc(C(=O)C(=O)O)cc1 . 30.2
